Values compiled from paper PMC10436550.

# Experiment notes: Toxicokinetics, plasma LPM3480392 after intravenous administration
# Assay type: in vivo, Sprague Dawley (SD) rats
# Assay context: male, Sprague-Dawley, rat, plasma, intravenous, 1.2 mg/kg/day, 1.2 mg/kg/day iv; 28th dosing day; M; read-out: C2min (The 1st dosing)
Test readout: concentration at 2 min
A bare number is not enough; add the unit after it.

Requested field: concentration at 2 min. Item: Fc1ccc([C@]2(CCNCc3cccc(Cl)c3)CCO[C@]3(CCOC3)C2)nc1 [LPM3480392]
171 ng/mL

* * *

# Experiment notes: Toxicokinetics, plasma LPM3480392 after intravenous administration
# Format: in vivo, Sprague Dawley (SD) rats
# Assay context: male, Sprague-Dawley, rat, plasma, intravenous, 1.2 mg/kg/day, 1.2 mg/kg/day iv; 1st dosing day; M; read-out: C2min (The 1st dosing)
Test readout: concentration at 2 min (ng/mL)
Answers are plain numbers, in ng/mL.

Requested field: concentration at 2 min. Item: Fc1ccc([C@]2(CCNCc3cccc(Cl)c3)CCO[C@]3(CCOC3)C2)nc1
170

* * *

# Experiment notes: Toxicokinetics, plasma LPM3480392 after intravenous administration
# Format: in vivo, Sprague Dawley (SD) rats
# Assay context: both sexes, Sprague-Dawley, rat, plasma, intravenous, 0.6 mg/kg/day, 0.6 mg/kg/day iv; 28th dosing day; F + M; read-out: C2min (The 2nd dosing)
# Protocol: Blood samples from animals in LPM3480392 groups were collected at predose and 2 min, 30 min, 1 h and 4 h postdose of the 1st dosing on Days 1 and 28; at 2 min and 4 h postdose of the 2nd dosing on Days 1 and 28; at 2 min, 1 h and 4 h postdose the 3rd dosing on Days 1 and 28. Animals in control group were sampled at predose and 2 min postdose of the 1st dosing on Days 1 and 28. […] TK parameters (AUC, Cmax, Tmax) were calculated by Phoenix WinNonlin (Pharsight) 8.2. […]
Test readout: concentration at 2 min (ng/mL)
Give bare numbers, in ng/mL.

Requested field: concentration at 2 min. Item: Fc1ccc([C@]2(CCNCc3cccc(Cl)c3)CCO[C@]3(CCOC3)C2)nc1
75.4
